Test system: Fibroblast
Test: Multiplex assay against human fibroblast
Assay type: toxicity, cell-based
Details: 24 h, 1 µM, compound concentration 1 uM, replicate 2
The entries below come with measured Population Mitotic Cells (%) values attached.
Please state the value followed by its unit.

                                        mol  result
0  Cc1cn(-c2cc(NC(=O)c3ccc(C)c(Nc4nccc(-c5cccnc5)n4)c3)cc(C(F)(F)F)c2)cn1     60%

Query: Recorded Population Mitotic Cells (%) for CNC(=O)c1ccc(Nc2nc(OC3CCCC3)c3c(-c4ccc5nc(C)oc5c4)c[nH]c3n2)c(OC)c1 , please?
Result: 0%

Query: Recorded Population Mitotic Cells (%) for Cl.O=c1c2cccn2c2ccccc2n1CCCN1CCC(c2ccc(Cl)cc2)CC1 , please?
Result: 75%

Query: Recorded Population Mitotic Cells (%) for Cc1cc(C)c(S(=O)(=O)N(Cc2ccc(-c3cccc(S(C)(=O)=O)c3)cc2)Cc2ccc(C(F)(F)F)o2)c(C)c1 , please?
Result: 100%

Query: Recorded Population Mitotic Cells (%) for C=CCn1c(=O)c2cnc(Nc3ccc(N4CCN(C)CC4)cc3)nc2n1-c1cccc(C(C)(C)O)n1 , please?
Result: 75%

====

The entries below come with measured Population Normal (%) values attached.
Test system: HEK-293T
Test: Multiplex assay against HEK293T
Type: toxicity, cell-based
Conditions: human, 48 h, 10 µM, compound concentration 10 uM, replicate 2
Return type: number; implicit unit %.

In [3]: df
Out[3]:
                                   compound  output_unit  result
0  Cc1ccc(C(=O)Nc2cccc(C(F)(F)F)c2)cc1Nc1nc(-c2cccnc2)nc2c1cnn2C            %      92
1  CCCS(=O)(=O)c1nc(NC2CC2)cc(-c2ccc3c(ccn3C3CC(C)(C)NC(C)(C)C3)c2)n1            %      90
2  CCOc1cc(C(=O)N2CCC(N3CCN(C)CC3)CC2)ccc1Nc1ncc2c(n1)N(C1CCCC1)c1ccccc1C(=O)N2C            %      90

Query: Recorded Population Normal (%) for O=C(Nc1ccc(-c2ccnc(Nc3ccc(N4CCOCC4)cc3)n2)cc1)[C@@H]1CCCN1 , please?
Result: 94

Query: Recorded Population Normal (%) for Cc1cc(C)c(S(=O)(=O)N(Cc2ccc(-c3cccc(S(C)(=O)=O)c3)cc2)Cc2ccc(C(F)(F)F)o2)c(C)c1 , please?
Result: 98

Query: Recorded Population Normal (%) for CN1C2CCC1CC(OC(c1ccc(F)cc1)c1ccc(F)cc1)C2.Cl (configuration not stated) , please?
Result: 89

Query: Recorded Population Normal (%) for O=C1N/C(=N/c2ccccc2F)S/C1=C\c1ccc(C(=O)O)cc1 , please?
Result: 97

Query: Recorded Population Normal (%) for O=C(Nc1ccc(Cl)cc1)Nc1cccc(-c2cccc(N3CCCC3)n2)c1 , please?
Result: 73

Query: Recorded Population Normal (%) for O=C1NC(=O)C(c2cnc3ccccn23)=C1c1cn2c3c(cc(F)cc13)CN(C(=O)N1CCCCC1)CC2 , please?
Result: 94

Query: Recorded Population Normal (%) for CNc1cc(Oc2cc(C(=O)Nc3cc(N4CCN(C)CC4)cc(C(F)(F)F)c3)ccc2C)ncn1 , please?
Result: 73

Query: Recorded Population Normal (%) for O=C(Nc1ccc(-n2nc(-c3cccnc3)cc2C(F)(F)F)cn1)c1ccc(-c2ccccc2)c(F)c1 , please?
Result: 97

Query: Recorded Population Normal (%) for CCOC(=O)c1c(C)[nH]c2ccc3c(c12)CN1CCc2cc(OC)ccc2C1O3 (configuration not stated) , please?
Result: 85

Query: Recorded Population Normal (%) for S=C(NCCCc1c[nH]cn1)NCCCN(Cc1ccc(Cl)c(Cl)c1)c1ccc(Br)cn1 , please?
Result: 90

Query: Recorded Population Normal (%) for CN1CCN(C(=O)C(C)(C)c2ccc(C(=O)Nc3cn4cc(-c5ccncc5)ccc4n3)cc2)CC1 , please?
Result: 95

Query: Recorded Population Normal (%) for CCc1cccc(CC)c1NC(=O)c1nn(C)c2c1CCc1cnc(Nc3ccc(C(=O)NC4CCN(C)CC4)cc3OC(F)(F)F)nc1-2 , please?
Result: 86

Query: Recorded Population Normal (%) for Cl.O=c1c2cccn2c2ccccc2n1CCCN1CCC(c2ccc(Cl)cc2)CC1 , please?
Result: 69

Query: Recorded Population Normal (%) for COc1cc(N2CCN(C)CC2)ccc1Nc1ncc2c(n1)N(C)c1ccccc1C(=O)N2C , please?
Result: 89
